# Test system: MCF7 breast
# assay notes: NCI-60 one-dose screen, 48 h (100 = growth as untreated, 0 = no growth, -100 = all killed)
# condition description: 10 µM unless noted
This is part of a sample that, as a whole, favours compounds with a hit. Of some 83,000 tested, about 20% had one in any assay.

{"compound": "O=S(=O)(Nc1ccc(I)cc1F)c1ccc(-c2cnc(C3CC3)o2)cc1", "units of measure": "%", "growth": 27.9}
{"compound": "CSc1nc2c(c(=O)[nH]1)C1(C(=O)Nc3ccccc31)c1c(nc(SC)[nH]c1=O)N2", "units of measure": "%", "growth": 102}
{"compound": "CN1CCN=C1c1ccc(NC(=O)c2ccc(C(=O)Nc3ccc(C4=NCCN4C)cc3)cc2)cc1", "units of measure": "%", "growth": 76.5}
{"compound": "Cc1nn(-c2ccc(F)cc2)c2ncnc(Nc3ccc(NC(=O)Nc4ccc(Cl)c(C(F)(F)F)c4)cc3)c12", "units of measure": "%", "growth": 12.8}
{"compound": "COc1ccc(C2C(C#N)=C(N)Oc3n[nH]c(-c4cccs4)c32)cc1I (stereo not given)", "units of measure": "%", "growth": 69.4}
{"compound": "CCC([N+](=O)[O-])S(=O)(=O)c1ccc(C)cc1 (stereo not given)", "units of measure": "%", "growth": 101}
{"compound": "CNC(=O)c1cc(Oc2ccc(NC(=O)Nc3ccc(Cl)c(OC(F)(F)F)c3)c(F)c2)ccn1", "units of measure": "%", "growth": 17.1}
{"compound": "COc1ccc(CCNc2nc3c(c(=O)n(Cc4ccc(Br)cc4)c(=O)n3C)n2C)cc1OC", "units of measure": "%", "growth": 94.4}
{"compound": "CN(C)CCN1C(=O)c2cccc3c(N)ccc(c23)C1=O", "units of measure": "%", "growth": -11.3}
{"compound": "CN(C)c1ccc(N=Nc2ccccn2)c(O)c1", "units of measure": "%", "growth": 17.3}

* * *

# Tested on: NCI-H322M lung
# assay notes: NCI-60 one-dose screen, 48 h (100 = growth as untreated, 0 = no growth, -100 = all killed)
# condition description: 10 µM unless noted
The panel holds about 83,000 compounds, 20% with a hit somewhere; the sample as a whole holds those more often. Active and inactive are the calls of the source. How the source made its calls: active means growth percent below 10; inactive means the rest.
We begin with a simple list: items and their reported growth.

{"compound": "O=C1c2ccccc2OC=C(c2ccccc2)N1CCCCNc1ccc(S(=O)(=O)Nc2ncccn2)cc1", "growth": "92.8% (inactive)"}
{"compound": "O=C1c2cccc3cccc(c23)C(=O)N1CCCCCN1CCN(CCCCCOc2ccc(-c3nc4ccc(N5CCOCC5)cc4[nH]3)cc2)CC1", "growth": "103% (inactive)"}
{"compound": "CC1=C(O)C(=O)C(C(C#N)(C#N)C(C#N)C#N)C1 (stereo not drawn)", "growth": "85.8% (inactive)"}
{"compound": "CCCCn1cnc2c(Sc3c([N+](=O)[O-])ncn3C)nc(N)nc21", "growth": "105% (inactive)"}
{"compound": "N#Cc1c(-c2ccc(Cl)cc2)nc(N=Nc2c(O)[nH]c3ccc(Cl)cc23)nc1N1CCOCC1", "growth": "96.5% (inactive)"}
{"compound": "CC1=C[C@H]2c3c(c(O)c(O)c4oc5c(C)cccc5c(=O)c34)[C@H](c3cc(O)c(O)c4oc5c(C)cccc5c(=O)c34)[C@H]2C(C)(C)C1", "growth": "21.5% (inactive)"}
{"compound": "CCN1CCN(c2nc(NCCCNc3ccnc4cc(Cl)ccc34)c3ccccc3n2)CC1", "growth": "45.4% (inactive)"}
{"compound": "CCCCn1c(-c2ccc(C(=O)O/N=C(\\N)c3ccc4c(c3)OCO4)cc2)nc(-c2ccccc2)c1-c1ccccc1", "growth": "66.6% (inactive)"}
{"compound": "CCn1c(O)c(/C=N/NC(=O)C(C)c2ccc(CC(C)C)cc2)sc1=S (stereo not drawn)", "growth": "37.6% (inactive)"}
{"compound": "O=C(NCCN1CCOCC1)Nc1ccc(-c2cc3c(Nc4ccc(Oc5cccc(C(F)(F)F)c5)c(Cl)c4)ncnc3s2)cc1", "growth": "18.7% (inactive)"}
{"compound": "CC(=O)O[C@H]1[C@@H]2OC(=O)C(CSc3ccccc3)[C@@H]2C[C@H]2O[C@]2(C)CC/C=C(\\C)CCC[C@@H]1C (stereo partly drawn)", "growth": "38% (inactive)"}
{"compound": "CCNC(=O)Oc1ccc(/C(=C(\\C)c2ccc(Cl)cc2)c2ccc(OCCN3CCCCC3)cc2)cc1", "growth": "75.2% (inactive)"}
{"compound": "O=[N+]([O-])c1ccc(Nc2nc(NCCN3CCOCC3)ncc2[N+](=O)[O-])cc1", "growth": "85% (inactive)"}
{"compound": "COc1ccc(S(=O)(=O)N2CCN(C)CC2)cc1NC(=O)c1[nH]c(C)c2c1CCCCC2=O", "growth": "59.9% (inactive)"}
{"compound": "O=C1C=CC(=O)N1c1ccc2c(c1)Cc1cc(F)ccc1-2", "growth": "93% (inactive)"}
{"compound": "CN(C)c1ccc(N=Nc2ccccn2)c(O)c1", "growth": "21.9% (inactive)"}
{"compound": "Cc1cc(N[C@@H]2CCC[C@H](Nc3ccnc4cc(Cl)ccc34)C2)nc(N2CCCCCC2)n1", "growth": "-37.8% (active)"}
{"compound": "CCCc1cc(=O)n2c(C(=O)Nc3ccc(F)cc3)c(C(=O)Nc3ccc(F)cc3)sc2n1", "growth": "54.8% [30 µM] (inactive)"}

* * *

# Tested on: KM12 colon
# assay notes: NCI-60 one-dose screen, 48 h (100 = growth as untreated, 0 = no growth, -100 = all killed)
# condition description: 10 µM unless noted
This is part of a sample that, as a whole, favours compounds with a hit. Of some 83,000 tested, about 20% had one in any assay.
I'd appreciate it if you marked entries true when growth is lower than 90% and false when it is not.

{"structure smiles": "COc1cccc(-c2nc3sccn3c2-c2ccnc(NCCCNS(=O)(=O)c3cccc(F)c3)c2)c1", "assay system": "KM12 colon", "label class": "true"}
{"structure smiles": "O=C1CC(=NCC(=O)n2c(-c3ccccc3)nc3ccccc32)NN1", "assay system": "KM12 colon", "label class": "false"}
{"structure smiles": "N#Cc1c(-c2ccc(Cl)cc2)nc(N/N=C/c2cccc(Br)c2)nc1N1CCOCC1", "assay system": "KM12 colon", "label class": "false"}
{"structure smiles": "O=C(CCN1C(=O)/C(=C/c2ccc(Cl)cc2)SC1=S)NCCCN1CCOCC1", "assay system": "KM12 colon", "label class": "false"}
{"structure smiles": "CN(C)S(=O)(=O)c1ccc(S(=O)(=O)Nc2cccc(Cl)c2N2CCCCC2)cc1", "assay system": "KM12 colon", "label class": "false"}

* * *

# Test system: HS 578T breast
# assay notes: NCI-60 one-dose screen, 48 h (100 = growth as untreated, 0 = no growth, -100 = all killed)
# condition description: 10 µM unless noted
The panel holds about 83,000 compounds, 20% with a hit somewhere; the sample as a whole holds those more often.
We begin with a simple list: items and their reported growth.

{"molecule": "C=CC(=O)Nc1cccc(-c2nc(SC)nc(Nc3cccc(OC)c3)c2C#N)c1", "growth (%)": 49.3}
{"molecule": "C=C(C)[C@@H]1CC[C@]2(C(=O)OC)CC[C@]3(C)[C@H](CC[C@@H]4[C@@]5(C)C/C(=C/c6ccc(OC)cc6)C(=O)C(C)(C)[C@@H]5CC[C@]43C)[C@@H]12", "growth (%)": 94.9}
{"molecule": "CCNC(=O)Oc1ccc(/C(=C(\\C)c2ccc(Cl)cc2)c2ccc(OCCN(CC)CC)cc2)cc1", "growth (%)": 47.1}
{"molecule": "Cc1cc(N2CCCCC2)nc(NC2CCCC(Nc3ccnc4cc(Cl)ccc34)C2)n1 (centres undefined)", "growth (%)": -48.6}

* * *

We begin with a simple list: items and their reported growth.
# Test system: M14 melanoma
# assay notes: NCI-60 one-dose screen, 48 h (100 = growth as untreated, 0 = no growth, -100 = all killed)
# condition description: 10 µM unless noted
The panel holds about 83,000 compounds, 20% with a hit somewhere; the sample as a whole holds those more often.

{"structure smiles": "O=C1c2cc3c(cc2-c2c1c1ccc(F)cc1c(=O)n2CCCNCCO)OCO3", "growth (%)": -39.7}
{"structure smiles": "COc1ccc(-c2nn(-c3ccc(Cl)cc3)cc2-c2nc3ccccc3[nH]2)cc1", "growth (%)": 90}
{"structure smiles": "COc1ccc(Nc2c3c4c(cccc4[nH]c2=O)C(=O)c2ccccc2-3)cc1", "growth (%)": 11.7}
{"structure smiles": "CN1CCN(c2ccc(Nc3c4ccccc4nc4ccccc34)cc2)CC1", "growth (%)": 113}
{"structure smiles": "O=S(=O)(Nc1ccc(Br)c(Cl)c1)c1ccc(-c2cnc(C3CC3)o2)cc1", "growth (%)": 5.11}
{"structure smiles": "CCCOc1ccc2nc(NC(=O)OC)[nH]c2c1", "growth (%)": 2.83}
